Target: DLL4 (human, UniProt Q9NR61)
Sequence (Q9NR61 27-524): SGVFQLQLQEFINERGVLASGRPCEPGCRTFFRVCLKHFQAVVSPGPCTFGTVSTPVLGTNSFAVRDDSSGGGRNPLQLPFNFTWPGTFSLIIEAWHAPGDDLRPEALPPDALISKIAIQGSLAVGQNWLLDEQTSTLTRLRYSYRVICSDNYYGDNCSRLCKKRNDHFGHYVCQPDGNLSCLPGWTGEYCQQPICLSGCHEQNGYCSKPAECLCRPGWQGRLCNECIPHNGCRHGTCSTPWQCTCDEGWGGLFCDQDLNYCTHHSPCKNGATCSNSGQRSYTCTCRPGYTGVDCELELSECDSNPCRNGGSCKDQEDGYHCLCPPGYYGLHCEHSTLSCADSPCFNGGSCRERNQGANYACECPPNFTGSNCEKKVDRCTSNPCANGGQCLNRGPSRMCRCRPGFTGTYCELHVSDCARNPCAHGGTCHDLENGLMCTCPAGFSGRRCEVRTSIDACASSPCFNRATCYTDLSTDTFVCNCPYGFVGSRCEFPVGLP
Experiment: competition
experimental_endpoint: pIC50
// pIC50: -log10(molar conc.)

Given DVD257 DLL4 arm (antibody, DVD-Ig outer) chain 1: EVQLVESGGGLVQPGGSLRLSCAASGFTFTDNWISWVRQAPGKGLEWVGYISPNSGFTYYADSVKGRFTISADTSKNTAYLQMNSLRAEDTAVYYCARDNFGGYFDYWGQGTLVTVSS chain 2: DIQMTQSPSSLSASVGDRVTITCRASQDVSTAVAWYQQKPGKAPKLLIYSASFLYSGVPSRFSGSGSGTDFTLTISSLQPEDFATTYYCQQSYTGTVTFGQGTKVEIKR , state its recorded pIC50.
9.42

Given DVD043 DLL4 arm (antibody, DVD-Ig inner) chain 1: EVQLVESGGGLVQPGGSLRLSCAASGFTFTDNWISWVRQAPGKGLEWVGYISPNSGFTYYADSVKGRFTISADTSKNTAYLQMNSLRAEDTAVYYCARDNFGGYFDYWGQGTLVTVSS chain 2: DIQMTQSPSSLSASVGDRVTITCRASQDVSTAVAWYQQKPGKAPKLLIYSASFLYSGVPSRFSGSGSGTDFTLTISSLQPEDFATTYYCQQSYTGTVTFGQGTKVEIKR , state its recorded pIC50.
7.88

Given DVD044 DLL4 arm (antibody, DVD-Ig outer) chain 1: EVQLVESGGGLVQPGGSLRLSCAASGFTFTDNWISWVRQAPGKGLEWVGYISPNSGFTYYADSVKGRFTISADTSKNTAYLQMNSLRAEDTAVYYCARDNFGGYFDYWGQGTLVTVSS chain 2: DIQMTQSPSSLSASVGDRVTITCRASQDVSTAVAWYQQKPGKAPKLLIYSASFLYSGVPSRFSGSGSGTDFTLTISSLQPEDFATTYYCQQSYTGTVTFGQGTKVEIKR , state its recorded pIC50.
9.30

Given DVD258 DLL4 arm (antibody, DVD-Ig inner) chain 1: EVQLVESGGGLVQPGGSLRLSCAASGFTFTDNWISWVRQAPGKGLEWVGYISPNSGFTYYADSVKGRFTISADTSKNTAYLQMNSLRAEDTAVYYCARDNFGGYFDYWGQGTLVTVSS chain 2: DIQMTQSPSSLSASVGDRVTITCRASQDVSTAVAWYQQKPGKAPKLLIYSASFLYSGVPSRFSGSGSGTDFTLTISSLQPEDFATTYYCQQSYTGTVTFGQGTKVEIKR , state its recorded pIC50.
7.76
